Values were extracted from patent US8937167B2.

- experimental_system: UniProtKB Q1R2J4
- run_conditions: Table 17; Examples 30-36 numbering;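 also: hemagglutination inhibition of guinea pig erythrocytes agglutinated by type 1 piliated uropathogenic E. coli via FimH mannose binding, quantified through serial dilutions of compound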
endpoint_label: HAI Titer EC>90 (µM)

1. CNC(=O)c1cccc(-c2ccc(O[C@H]3O[C@H](CO)[C@@H](O)[C@H](O)[C@@H]3O)cc2)c1 [Compound 2] : 0.50
2. COC(=O)c1cccc(-c2ccc(O[C@H]3O[C@H](CO)[C@@H](O)[C@H](O)[C@@H]3O)c(Cl)c2)c1 [Compound 4b] : 0.03
3. COC(=O)c1cccc(-c2ccc(O[C@H]3O[C@H](CO)[C@@H](O)[C@H](O)[C@@H]3O)c(OC)c2)c1 [Compound 4e] : 0.19
4. COC(=O)c1cccc(-c2ccc(O[C@H]3O[C@H](CO)[C@@H](O)[C@H](O)[C@@H]3O)c(C)c2)c1 [Compound 4c] : 0.12
5. COC(=O)c1cccc(-c2ccc(O[C@H]3O[C@H](CO)[C@@H](O)[C@H](O)[C@@H]3O)cc2)c1 [Compound 1, phenyl mannoside, reference compound] : 1.00
6. COC(=O)c1cccc(-c2ccc(O[C@H]3O[C@H](CO)[C@@H](O)[C@H](O)[C@@H]3O)c(C(F)(F)F)c2)c1 [Compound 4d] : 0.03
7. CNC(=O)c1cccc(-c2ccc(O[C@H]3O[C@H](CO)[C@@H](O)[C@H](O)[C@@H]3O)c(C(F)(F)F)c2)c1 [Compound 5c] : 0.03
8. COC(=O)c1cccc(-c2ccc(O[C@H]3O[C@H](CO)[C@@H](O)[C@H](O)[C@@H]3O)c(F)c2)c1 [Compound 4a] : 0.75
